- Tested on: Jurkat
- assayExplanation: MTS proliferation assay
- Format: cell-based, human
- statedConditions: 72 h
pIC50: −log10 of the molar value.
Parameter: pIC50. Scope: all listed entries.
attributeMeasured: pIC50

querySmiles	attributeMeasured	result
Cc1ccc(S(=O)(=O)n2cc(CNc3ccc(N4CCOCC4)cc3N3CCOCC3)cc2-c2ccc3c(c2)OCO3)cc1	pIC50	< 6.00
COc1cc(-c2cc(-c3cncc(C(=O)NCCN4CCOCC4)c3)cn2S(=O)(=O)c2ccc(C)cc2)cc(OC)c1OC.Cl	pIC50	> 6.00
Cc1ccc(S(=O)(=O)n2cc(CNc3ccc(N4CCOCC4)cc3)cc2-c2ccc3c(c2)OCO3)cc1.Cl	pIC50	< 6.00
Cc1ccc(S(=O)(=O)n2cc(CNCCCN3CCCC3)cc2-c2ccc3c(c2)OCO3)cc1	pIC50	< 6.00
COc1cc(-c2cc(-c3cccnc3)cn2S(=O)(=O)c2ccccc2)cc(OC)c1OC	pIC50	> 6.00
COc1cc(-c2cc(-c3cccnc3)cn2S(=O)(=O)c2ccccc2Cl)cc(OC)c1OC	pIC50	< 6.00
Cc1ccc(S(=O)(=O)n2cc(-c3ccc(S(N)(=O)=O)cc3)cc2-c2ccc3c(c2)OCO3)cc1	pIC50	> 6.00
Cc1ccc(S(=O)(=O)n2cc(-c3cccnc3)cc2-c2ccc3c(c2)OCO3)cc1	pIC50	< 6.00
